B1: tRNA (parent)
chain: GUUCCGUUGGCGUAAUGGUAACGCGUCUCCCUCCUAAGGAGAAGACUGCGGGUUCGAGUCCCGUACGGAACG

Variants of: B1
Experiment: yeast fitness, log relative to wild type (ln ratio); higher = fitter; tRNA-Arg(CCU), competitive growth, 37 C, 1 M NaCl
Classification by yeast fitness (ln) | ranges: lower: < -0.2; middle: ≥ -0.2 and < -0.1; upper: ≥ -0.1

[
  {
    "Query sequence": "AUUCCAUUGGCGUAAUGGUAACGCGUUUCCCUCCUAAGGAGAAGAUUGCGGGUUCGAGUCCCGUAAGGAUUG",
    "Cat": "lower"
  },
  {
    "Query sequence": "GUUCCAUUGGCGUAAUGGUAACGCGUUUCCCUCCUAAGGAGAAGAUUGCGGGUUCGAGUCCCGUAUGGAAUG",
    "Cat": "upper"
  },
  {
    "Query sequence": "AGUCCAUUGGCGUAAUGGUAACGCGUUUCCCUCCUAAGGAGAAGAUUGCGGGUUCGAGUCCCGUACGGAUUG",
    "Cat": "middle"
  },
  {
    "Query sequence": "GGUCCUUUGGCGUAAUGGUAACGCGUCUCCCUCCUAAGGAGAAGAUUGCGGGUUCGAGUCCCGUAUGGAGUG",
    "Cat": "middle"
  },
  {
    "Query sequence": "ACUCCGUUGGCGUAAUGGUAACGCGUCUCCCUCCUAAGGAGACGACUGCGGGUUCGAGUCCCGUAAGGAUUG",
    "Cat": "lower"
  },
  {
    "Query sequence": "ACUCCUUUGGCGUAAUGGUAACGCGUCUCCCUCCUAAGGAGACGAUUGCGGGUUCGAGUCCCGUACGGGGUG",
    "Cat": "middle"
  },
  {
    "Query sequence": "ACUCCUUUGGCGUAAUGGUAACGCGUCUCCCUCCUAAGGAGACGAUUGCGGGUUCGAGUCCCGUAAGGAUCG",
    "Cat": "middle"
  },
  {
    "Query sequence": "GGUCCUUUGGCGUAAUGGUAACGCGUCUCCCUCCUAAGGAGAAGACUGCGGGUUCGAGUCCCGUACGGAACG",
    "Cat": "upper"
  },
  {
    "Query sequence": "GUUCCAUUGGCGUAAUGGUAACGCGUCUCCCUCCUAAGGAGAAGAUUGCGGGUUCGAGUCCCGUAAGGAUUG",
    "Cat": "lower"
  },
  {
    "Query sequence": "GUUCCAUUGGCGUAAUGGUAACGCGUUUCCCUCCUAAGGAGAAGAUUGCGGGUUCGAGUCCCGUACGGGACG",
    "Cat": "middle"
  },
  {
    "Query sequence": "ACUCCGUUGGCGUAAUGGUAACGCGUCUCCCUCCUAAGGAGAAGAUUGCGGGUUCGAGUCCCGUAUGGAACG",
    "Cat": "upper"
  },
  {
    "Query sequence": "AGUCCGUUGGCGUAAUGGUAACGCGUUUCCCUCCUAAGGAGAAGAUUGCGGGUUCGAGUCCCGUAAGGGGUG",
    "Cat": "lower"
  },
  {
    "Query sequence": "AUUCCGUUGGCGUAAUGGUAACGCGUUUCCCUCCUAAGGAGAAGAUUGCGGGUUCGAGUCCCGUAAGGAAUG",
    "Cat": "middle"
  },
  {
    "Query sequence": "GGUCCUUUGGCGUAAUGGUAACGCGUUUCCCUCCUAAGGAGACGACUGCGGGUUCGAGUCCCGUAAGGAGUG",
    "Cat": "lower"
  },
  {
    "Query sequence": "GUUCCAUUGGCGUAAUGGUAACGCGUUUCCCUCCUAAGGAGAAGAUUGCGGGUUCGAGUCCCGUAUGGAUCG",
    "Cat": "upper"
  },
  {
    "Query sequence": "AUUCCAUUGGCGUAAUGGUAACGCGUCUCCCUCCUAAGGAGAAGACUGCGGGUUCGAGUCCCGUAAGGGGUG",
    "Cat": "middle"
  },
  {
    "Query sequence": "GGUCCUUUGGCGUAAUGGUAACGCGUUUCCCUCCUAAGGAGACGACUGCGGGUUCGAGUCCCGUAUGGGGCG",
    "Cat": "lower"
  },
  {
    "Query sequence": "AUUCCAUUGGCGUAAUGGUAACGCGUCUCCCUCCUAAGGAGAAGAUUGCGGGUUCGAGUCCCGUACGGAACG",
    "Cat": "upper"
  },
  {
    "Query sequence": "AGUCCUUUGGCGUAAUGGUAACGCGUCUCCCUCCUAAGGAGACGAUUGCGGGUUCGAGUCCCGUACGGAGCG",
    "Cat": "lower"
  },
  {
    "Query sequence": "GUUCCGUUGGCGUAAUGGUAACGCGUCUCCCUCCUAAGGAGAAGACUGCGGGUUCGAGUCCCGUAAGGGAUG",
    "Cat": "middle"
  },
  {
    "Query sequence": "GUUCCUUUGGCGUAAUGGUAACGCGUUUCCCUCCUAAGGAGACGACUGCGGGUUCGAGUCCCGUAUGGAGUG",
    "Cat": "lower"
  },
  {
    "Query sequence": "GGUCCAUUGGCGUAAUGGUAACGCGUUUCCCUCCUAAGGAGAAGACUGCGGGUUCGAGUCCCGUAUGGGUCG",
    "Cat": "upper"
  },
  {
    "Query sequence": "GCUCCGUUGGCGUAAUGGUAACGCGUCUCCCUCCUAAGGAGACGACUGCGGGUUCGAGUCCCGUACGGAAUG",
    "Cat": "middle"
  },
  {
    "Query sequence": "GGUCCAUUGGCGUAAUGGUAACGCGUCUCCCUCCUAAGGAGAAGACUGCGGGUUCGAGUCCCGUAAGGAAUG",
    "Cat": "middle"
  },
  {
    "Query sequence": "GCUCCUUUGGCGUAAUGGUAACGCGUUUCCCUCCUAAGGAGAAGACUGCGGGUUCGAGUCCCGUAAGGGGUG",
    "Cat": "upper"
  },
  {
    "Query sequence": "ACUCCGUUGGCGUAAUGGUAACGCGUUUCCCUCCUAAGGAGACGACUGCGGGUUCGAGUCCCGUAAGGAUUG",
    "Cat": "lower"
  },
  {
    "Query sequence": "GGUCCUUUGGCGUAAUGGUAACGCGUCUCCCUCCUAAGGAGACGACUGCGGGUUCGAGUCCCGUAAGGAAUG",
    "Cat": "lower"
  },
  {
    "Query sequence": "AGUCCUUUGGCGUAAUGGUAACGCGUUUCCCUCCUAAGGAGACGAUUGCGGGUUCGAGUCCCGUAAGGAUCG",
    "Cat": "lower"
  },
  {
    "Query sequence": "AUUCCGUUGGCGUAAUGGUAACGCGUCUCCCUCCUAAGGAGAAGACUGCGGGUUCGAGUCCCGUAUGGAACG",
    "Cat": "upper"
  },
  {
    "Query sequence": "GUUCCGUUGGCGUAAUGGUAACGCGUCUCCCUCCUAAGGAGACGAUUGCGGGUUCGAGUCCCGUAUGGAACG",
    "Cat": "upper"
  },
  {
    "Query sequence": "GCUCCGUUGGCGUAAUGGUAACGCGUUUCCCUCCUAAGGAGACGAUUGCGGGUUCGAGUCCCGUACGGAGCG",
    "Cat": "upper"
  },
  {
    "Query sequence": "ACUCCGUUGGCGUAAUGGUAACGCGUUUCCCUCCUAAGGAGACGAUUGCGGGUUCGAGUCCCGUACGGAGUG",
    "Cat": "upper"
  },
  {
    "Query sequence": "GUUCCGUUGGCGUAAUGGUAACGCGUCUCCCUCCUAAGGAGAAGAUUGCGGGUUCGAGUCCCGUAUGGGGUG",
    "Cat": "upper"
  },
  {
    "Query sequence": "GGUCCGUUGGCGUAAUGGUAACGCGUCUCCCUCCUAAGGAGAAGAUUGCGGGUUCGAGUCCCGUAAGGGUCG",
    "Cat": "upper"
  },
  {
    "Query sequence": "AUUCCUUUGGCGUAAUGGUAACGCGUUUCCCUCCUAAGGAGACGAUUGCGGGUUCGAGUCCCGUACGGGAUG",
    "Cat": "lower"
  },
  {
    "Query sequence": "GGUCCGUUGGCGUAAUGGUAACGCGUCUCCCUCCUAAGGAGACGACUGCGGGUUCGAGUCCCGUAAGGAAUG",
    "Cat": "lower"
  },
  {
    "Query sequence": "GCUCCGUUGGCGUAAUGGUAACGCGUCUCCCUCCUAAGGAGAAGAUUGCGGGUUCGAGUCCCGUAUGGAGUG",
    "Cat": "upper"
  },
  {
    "Query sequence": "AUUCCGUUGGCGUAAUGGUAACGCGUCUCCCUCCUAAGGAGACGAUUGCGGGUUCGAGUCCCGUAUGGAACG",
    "Cat": "middle"
  },
  {
    "Query sequence": "GGUCCUUUGGCGUAAUGGUAACGCGUCUCCCUCCUAAGGAGACGAUUGCGGGUUCGAGUCCCGUACGGAGUG",
    "Cat": "lower"
  },
  {
    "Query sequence": "GGUCCGUUGGCGUAAUGGUAACGCGUUUCCCUCCUAAGGAGAAGACUGCGGGUUCGAGUCCCGUAAGGAGCG",
    "Cat": "middle"
  },
  {
    "Query sequence": "AUUCCGUUGGCGUAAUGGUAACGCGUCUCCCUCCUAAGGAGAAGAUUGCGGGUUCGAGUCCCGUAUGGAGCG",
    "Cat": "middle"
  },
  {
    "Query sequence": "GCUCCUUUGGCGUAAUGGUAACGCGUUUCCCUCCUAAGGAGAAGACUGCGGGUUCGAGUCCCGUAAGGAGCG",
    "Cat": "upper"
  },
  {
    "Query sequence": "GGUCCAUUGGCGUAAUGGUAACGCGUCUCCCUCCUAAGGAGACGACUGCGGGUUCGAGUCCCGUAAGGAAUG",
    "Cat": "lower"
  },
  {
    "Query sequence": "AUUCCUUUGGCGUAAUGGUAACGCGUCUCCCUCCUAAGGAGACGAUUGCGGGUUCGAGUCCCGUACGGGGCG",
    "Cat": "lower"
  }
]
